tested on: HOP-62 NSCLC; experiment: NCI tumour cell line growth inhibition, 48 h
metric_name: TGI

Please review the following examples before continuing.
Problem: Identify TGI associated with the molecule `CN(C)c1ccc2cc(-c3ccccc3F)c(N)nc2c1`
Solution: 12.7 µM

Problem: Identify TGI associated with the molecule NNC(=O)CCC(=O)NC1C2CC3CC(C2)CC1C3 (stereo unspecified)
Solution: > 100 µM

Problem: Identify TGI associated with the molecule `O=C(N/N=C\c1ccc2ccccc2c1)Nc1ccc([N+](=O)[O-])cc1`
Solution: 68.1 µM

Problem: Identify TGI associated with the molecule COc1ccc2c3c1OC1c4[nH]c5ccccc5c4CC4(O)C(C2)N(C)CCC314 (stereo unspecified)
Solution: > 100 µM

More entries:
Problem: Identify TGI associated with the molecule `CCOC(=O)C(=O)Nc1c(C)cccc1C`
Solution: > 100 µM

Problem: Identify TGI associated with the molecule `CN(C)c1ccc(/C=C/C=C(/C#N)c2ccccc2)cc1`
Solution: > 97 µM
